- test.method.notes: soluble on expression in E. coli; label from the status in PepcDB or PDB records

>  <seq.text>
MSLNAKPKDTVIANARIVLADRVIEQGWLALANGRVAEIGEGRAPAGAEDAGGDLIMPGLIELHTDHLEAHYVPRPKVFWNPVAAVVSYDGQLATSGITTVFDSLRVWREDGAEEVDGRAGVLAAAITTARDADLLRADHFLHLRCEIPMPSVVEEAKELIDRPDVKLMSLMDHTPGQRQFRDEGKLRDYYRGKNGGKTDAQLDELFAKRFEYQKAYAATNMREIVALAHQYNIPLASHDDTTEENVADAVRDRVSVAEFPTTLEAARGLHQAGIDILMGAPNVVRGGSHSGNIAAVDLAREGLLDILSSDYIPSSLLMAALQLPEHVPAISLPAAVRTVTKAPAEAVGLSDRGEIAVGKRADLIRVHIAGSVPVVRSVWREGGRVAEGHHHHHH

>  <soluble on expression in E. coli>
soluble

$$$$
>  <seq.text>
SLGALGVIAFRRGYYYYVGSANSGVHRVKRHFSIKKKKRWHIDYISAKMEVVGAILSKEPECGLAQRFESFERIRGFGCSDCDCESHLFYSPTLNLEFLST

>  <soluble on expression in E. coli>
soluble

$$$$

* * *

- test.method.notes: soluble on expression in E. coli; label from the status in PepcDB or PDB records
measured.quantity: soluble on expression in E. coli

Consider the reported soluble on expression in E. coli for these sequences:
>  <seq.text>
MSLQVSKFKNLPKIELHLHLDCSLSYDVVKKIDPTVDIKHYKSSFQAGESCSSLKDYLKCADNAIELMQTKENLQFIVEDLFKQLHDDNVIYAEIRFAPLLHCEGDLNAKKVVDIICMSALIQSKKYNIDYGLILCTLRHYSEDESLKTVKLVKEFSEKGVVGFDIAADEAGYPIDNHIKAFTYAKNNNLNITAHAGEAKGSESIWETINKLYAKRIGHGVRCLEDKKLVKFLSDNNYHLEICLTSNIKTNTFDLFTDHPINEIYDSSISLSLNTDGRAISNTSLSKEYAIAHSELNWSMKKIIQSNLNAIEHAFTTNEKKEKLRKHLKSFSEGHHHHHH

>  <soluble on expression in E. coli>
soluble

$$$$
>  <seq.text>
MSLKTHTLPLLLSCTLFLIGACTSMPPEIRNFSAVDIPYQPVSQNAETYKDAPVRWGGTVIEVENETDFSLMQVLFHPLDRSGYPETRKPGEGRFAVEINEFLDPAIYTKGVEVTVIGTVKGNIERTIGNKTIHIPLITAKTIHLWPQAYREDNLYRYGPYPGYYGYGYPFFYNGYYRPYRFWWEGHHHHHH

>  <soluble on expression in E. coli>
not soluble

$$$$
>  <seq.text>
MRDIVIIGHKAKTSGDFSLNDLPGSAGRMDILCRCVSSALFLSFGMRRDVNVHLLLLGEPDPGKIIRFEGLHLRYLNPDERSSGSLIQKALLKNAAGQDIRSTPGVWTRTGDLNSLLASFEGRTLLYLREDGKDFREIAREIQDPVFILGDHTGVTEEEEKQLLEAGAQVISVGPISLHSNHCITLIHNELDRAEAERGEIPGGNISRPED

>  <soluble on expression in E. coli>
not soluble

$$$$
>  <seq.text>
MDIETIVNEFETRAGTLLRYYTGLLERSKVQPCCFKLYNDPFDMVYVMMNSKLFSHVYIKDCKVRQSFELASPKHTEGLIRSIEGHYVGYELHDGKQLSISDMMASQLFEDEYFMYGLQTYAESNNSDVFKCLENGFDTDTLEGIQSSNTDVIANIEMLYQLATGINEPVPELVEGLKLVTEFVQDENATQEDYKALERKLNDLKASYYSLSKLAAALEHHHHHH

>  <soluble on expression in E. coli>
soluble

$$$$
>  <seq.text>
AIAGNTTSERVSGERHGAKAARAEGGGHGPGKEHKIMVGSTDDPSVFSLPDSKLPGDKEFVPWQQDLDDSVKPAQQARPTVIRWSEGGKEVFISGSFNNWSTKIPLIKSHNDFVAILDLPEGEHQYKFFVDGQWVHDPSEPVVTSQLGTINNLIHVKKSDFEVFDALKLDSMESSETSCRDLSSSPPGPYGQEMYVFRSEERFKSPPILPPHLLQVILNKDTNISCDPALLPEPNHVMLNHLYALSIKDSVMVLSATHRYKKKYVTTLLYKPI

>  <soluble on expression in E. coli>
soluble

$$$$
>  <seq.text>
MSLSWEYEYYPHSLFCHHKEREGMHYIEGAYWSAEPDLPYLHKRKILMLVEDVWLLVDDIRCQGQHEALTQFILDKDVTYQDGKINQLRLWSEVDFDLEDTIISPKYNELERSSKLTKRQFFENQMLDYTIIAHESFEIIRHSVYQTDDREVENALAFEVKNDETDKLILLLSEDIRVGEKLCLVDGTKMRGKCLVYDKINERMIRLQCEGHHHHHH

>  <soluble on expression in E. coli>
soluble

$$$$
>  <seq.text>
MFQVPDSEGGRAGSRAMKPPGGESSNLFGSPEEATPSSRPNRMASNIFGPTEEPQNIPKRTNPPGGKGSGIFDESTPVQTRQHLNPPGGKTSDIFGSPVTATSRLAHPNKPKDHVFLCEGEEPKSDLK

>  <soluble on expression in E. coli>
not soluble

$$$$
>  <seq.text>
LTVSARDAPTKISTLAVKVHGGSRYATKDGVAHLLNRFNFQNTNTRSALKLVRESELLGGTFKSTLDREYITLKATFLKDDLPYYVNALADVLYKTAFKPHELTESVLPAARYDYAVAEQCPVKSAEDQLYAITFRKGLGNPLLYDGVERVSLQDIKDFADKVYTKENLEVSGENVVEADLKRFVDESLLSTLPAGKSLVSKSEPKFFLGEENRVRFIGDSVAAIGIPVNKASLAQYEVLANYLTSALSELSGLISSAKLDKFTDGGLFTLFVRDQDSAVVSSNIKKIVADLKKGKDLSPAINYTKLKNAVQNESVSSPIELNFDAVKDFKLGKFNYVAVGDVSNLPYLDEL

>  <soluble on expression in E. coli>
soluble

$$$$

Data request: Which value of soluble on expression in E. coli has been reported for MTWNPLALATALQTVPEQNIDVTNSENALIIKMNDYGDLQINILFTSRQMIIETFICPVSSISNPDEFNTFLLRNQKMMPLSSVGISSVQQEEYYIVFGALSLKSSLEDILLEITSLVDNALDLAEITEEYSHLEHHHHHH in the records?
Data returned: soluble

Data request: Which value of soluble on expression in E. coli has been reported for MGSDKIHHHHHHMDEQQQLANAYHSNKLSHAYLFEGDDAQTMKRVAIHFTKLILCNNSNQCELKVDTFNHPDFSYVSSDENTIKKEQIEQLVHHMNQLPIEGQYKVYIIEDFEKLTVQGENSILKFLEEPPDNTIAILLSTKPEQILDTIHSRCQHVYFKPIDKRQFIERLVEMSIARPVAEMLSTYTTQIEAASSLNEEFDLVTLRKSIIRWCQLILSNKAMALIGVIELLKQAKNRKLQLLTLSAVNGFFEDIMHAKIEMDNYYTFSDLTEEIENYANQLTFNQLILMYDQITEAHKKLNQNVNPTLVFEQIVIKGVI in the records?
Data returned: not soluble

Data request: Which value of soluble on expression in E. coli has been reported for VTGVASAMAERLKEDGNNCFKKERFGAAIDAYTEAIALSPNVPAYWTNRALCHMKRKDWTKVEEDCRKAIQLVHNSVKAHYMLGLALLQKKEFTNGVKELQRALDLGRC in the records?
Data returned: not soluble

Data request: Which value of soluble on expression in E. coli has been reported for MANDIVPQDENGAGMPVEFDASTITGEEKAAILLLSLNEQDAAGIIRHLEPKQVQRVGSAMARAKDLSQEKVSAVHRTFLEDIQKYTNIGMGSEDFMRNALVAALGEDKANNLVDQILLGTGSKGLDSLKWM in the records?
Data returned: not soluble

Data request: Which value of soluble on expression in E. coli has been reported for MSLCDVLQMARSTYYYEAKIRDDQDEELSELIVDIFKNSRDNYGQRKIKIELRKKGWTVSRRRIGRIMKEQGLVSKYTVAQFKPAKTSCNESEIGNTLNREFNQEQELKVVVSDLTYVRVQQKWHYICVLVDLYNREIIGYSAGPHKSAELVQRAFASVKYNLQRLELFHTDRGSEFKNKLIDQALETFGIERSLSEKGTPYDNAVAEATFKTIKTEFVRGAVFSSQQELDLELFDYVHWFNTIRIHGSLDYLTPTEYKLMNLEGHHHHHH in the records?
Data returned: not soluble
